Target: T1, human CXCR2 (human, UniProt P25025 1-360)
T1 construct: also called CXC chemokine receptor 2; hCXCR2
T1 sequence: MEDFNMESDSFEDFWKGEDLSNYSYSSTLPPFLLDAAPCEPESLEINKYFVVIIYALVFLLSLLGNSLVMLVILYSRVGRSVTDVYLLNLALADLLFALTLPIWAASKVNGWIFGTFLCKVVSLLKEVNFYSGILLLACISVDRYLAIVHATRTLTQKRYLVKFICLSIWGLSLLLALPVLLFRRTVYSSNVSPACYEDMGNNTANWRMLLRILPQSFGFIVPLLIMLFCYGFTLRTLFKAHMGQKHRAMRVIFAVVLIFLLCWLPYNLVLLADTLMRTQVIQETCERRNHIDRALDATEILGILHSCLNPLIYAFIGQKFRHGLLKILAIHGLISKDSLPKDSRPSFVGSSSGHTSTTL
Assay: flow cytometry, CXCR2-transfected Expi293F cells
MEASURE: Fold change in binding relative to BKO-4A8 (fold)
Please give a number only; it is taken to be in fold.

BKO-4A8 variant VL N95aL (antibody, human IgG4 S228P, lambda, V domains shown, IgG4 S228P, lambda; parental heavy chain; also called 4A8 VL N95aL) VH: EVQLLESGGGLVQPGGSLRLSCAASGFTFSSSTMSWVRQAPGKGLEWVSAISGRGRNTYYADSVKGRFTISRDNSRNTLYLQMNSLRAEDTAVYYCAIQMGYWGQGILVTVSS VL: QSALTQPPSASGSPGQSVTISCIGTSSDVGGYNYVSWYQQHPDKAPKLMIYEVNKRPSGVPDRFSGSKSGNTASLTVSGLQAEDEADYYCSSYAGNNLFGVFGGGTKLTVLG    1.7
BKO-4A8 variant VH M34H (antibody, human IgG4 S228P, lambda, V domains shown, IgG4 S228P, lambda; parental light chain; also called 4A8 VH M34H) VH: EVQLLESGGGLVQPGGSLRLSCAASGFTFSSSTHSWVRQAPGKGLEWVSAISGRGRNTYYADSVKGRFTISRDNSRNTLYLQMNSLRAEDTAVYYCAIQMGYWGQGILVTVSS VL: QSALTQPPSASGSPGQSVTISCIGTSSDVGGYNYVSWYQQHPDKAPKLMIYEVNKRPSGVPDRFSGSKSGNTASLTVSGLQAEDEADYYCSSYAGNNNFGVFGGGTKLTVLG    0.8

Here is another binder to look at.
Tell me the measured Fold change in binding relative to BKO-4A8 of BKO-4A8 variant VL N95aK (antibody, human IgG4 S228P, lambda, V domains shown, IgG4 S228P, lambda; parental heavy chain; also called 4A8 VL N95aK) VH: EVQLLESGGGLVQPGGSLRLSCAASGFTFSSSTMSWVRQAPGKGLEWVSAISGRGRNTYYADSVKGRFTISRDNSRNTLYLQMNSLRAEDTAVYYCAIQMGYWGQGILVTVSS VL: QSALTQPPSASGSPGQSVTISCIGTSSDVGGYNYVSWYQQHPDKAPKLMIYEVNKRPSGVPDRFSGSKSGNTASLTVSGLQAEDEADYYCSSYAGNNKFGVFGGGTKLTVLG , please.
1
